- assay name: in vivo
- assay context: male, Wistar, rat, iv, 0.5 mg/kg
measured attribute: AUC(0-inf) at 24 h (ng·h/mL)

1) O=C(O)c1cc(-c2ccc(-c3cc(CO)on3)cc2)c2ccc(-c3ccc(C(F)(F)F)cc3)cc2c1    238

---

- assay name: in vivo
- assay context: male, Wistar, rat, ip, 10 mg/kg
measured attribute: half-life at 24 h (h)

1. O=C(O)c1cc(-c2ccc(-c3cc(CO)on3)cc2)c2ccc(-c3ccc(C(F)(F)F)cc3)cc2c1    2.98

---

- assay name: in vivo
- assay context: male, Wistar, rat, ip, 3 mg/kg
measured attribute: Cmax at 24 h (ng/mL)

1. O=C(O)c1cc(-c2ccc(-c3cc(CO)on3)cc2)c2ccc(-c3ccc(C(F)(F)F)cc3)cc2c1 [Compound 32]    315
